Data origin, for the record: the supplement of paper PMC9233669

Tested on: biotinyl-Trp-oxazolone
TEST DETAILS: self-aminoacylation, catalytic enhancement (BWO) (fold over background); higher = more active; k-Seq, kA / k0A0; sequences stand for … in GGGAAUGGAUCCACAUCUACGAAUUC…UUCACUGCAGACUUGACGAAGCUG
Fewer inactive variants are shown than the library holds.
Each entry below carries its reported self-aminoacylation.
ENDPOINT LABEL: self-aminoacylation

{"ORDERED RESIDUES": "CCGCACUUCCAGCAAUCGGUC [Fam1B.1 aminoacylation ribozyme variant]", "SYSTEM UNDER TEST": "biotinyl-Trp-oxazolone", "VALUE": 0.883}
{"ORDERED RESIDUES": "CUACUUAAAACAAGCGGUCUG [Fam1A.1 aminoacylation ribozyme variant]", "SYSTEM UNDER TEST": "biotinyl-Trp-oxazolone", "VALUE": 0.982}
{"ORDERED RESIDUES": "GUUACGCUGGUCAUCGAGUGA [Fam2.1 aminoacylation ribozyme variant]", "SYSTEM UNDER TEST": "biotinyl-Trp-oxazolone", "VALUE": 10.6}
{"ORDERED RESIDUES": "CUACUUCAAAGAACCGGUCUG [Fam1A.1 aminoacylation ribozyme variant]", "SYSTEM UNDER TEST": "biotinyl-Trp-oxazolone", "VALUE": 0.734}
{"ORDERED RESIDUES": "CAACACUUCAAGCAAUCCGUC [Fam1B.1 aminoacylation ribozyme variant]", "SYSTEM UNDER TEST": "biotinyl-Trp-oxazolone", "VALUE": 0.727}
{"ORDERED RESIDUES": "CUACUUCAAACAAUCGAUCGG [Fam1A.1 aminoacylation ribozyme variant]", "SYSTEM UNDER TEST": "biotinyl-Trp-oxazolone", "VALUE": 0.676}
{"ORDERED RESIDUES": "AUUCACCUAGGUCUACGGGUG [Fam2.2 aminoacylation ribozyme variant]", "SYSTEM UNDER TEST": "biotinyl-Trp-oxazolone", "VALUE": 4.07}
{"ORDERED RESIDUES": "CCAUACUUCAAUCAAUCGGUC [Fam1B.1 aminoacylation ribozyme variant]", "SYSTEM UNDER TEST": "biotinyl-Trp-oxazolone", "VALUE": 15.9}
{"ORDERED RESIDUES": "CCACACUUCAAGCAGCCGGUC [Fam1B.1 aminoacylation ribozyme variant]", "SYSTEM UNDER TEST": "biotinyl-Trp-oxazolone", "VALUE": 1.68}
{"ORDERED RESIDUES": "CCACACUUCAAGUACUCGGUC [Fam1B.1 aminoacylation ribozyme variant]", "SYSTEM UNDER TEST": "biotinyl-Trp-oxazolone", "VALUE": 0.789}

====

System: biotinyl-Val-oxazolone
TEST DETAILS: self-aminoacylation, catalytic enhancement (BVO) (fold over background); higher = more active; k-Seq, kA / k0A0; sequences stand for … in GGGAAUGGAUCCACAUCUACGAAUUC…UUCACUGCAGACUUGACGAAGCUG
Fewer inactive variants are shown than the library holds.
Each entry below carries its reported self-aminoacylation.

{"ORDERED RESIDUES": "CCACACGUCGAGCAAUCGGUC [Fam1B.1 aminoacylation ribozyme variant]", "self-aminoacylation": 2.02}
{"ORDERED RESIDUES": "AUUAUCCUGGUCAGCGAGUGA [Fam2.1 aminoacylation ribozyme variant]", "self-aminoacylation": 3.13}
{"ORDERED RESIDUES": "AUUUACCCAGGUCAUCGGGUG [Fam2.2 aminoacylation ribozyme variant]", "self-aminoacylation": 3.55}
{"ORDERED RESIDUES": "GUUCACCUAGUUCAUCGGGUG [Fam2.2 aminoacylation ribozyme variant]", "self-aminoacylation": 2.9}
{"ORDERED RESIDUES": "GUUACCCUGGUCGUCGAGUGA [Fam2.1 aminoacylation ribozyme variant]", "self-aminoacylation": 1.6}
{"ORDERED RESIDUES": "AUUCACCUAGGUCAUCGGCCG [Fam2.2 aminoacylation ribozyme variant]", "self-aminoacylation": 3.45}
{"ORDERED RESIDUES": "CUACUUCCAACAAUGGGUCUG [Fam1A.1 aminoacylation ribozyme variant]", "self-aminoacylation": 0.835}
{"ORDERED RESIDUES": "AUUCCCCUAGUUCAUCGGGUG [Fam2.2 aminoacylation ribozyme variant]", "self-aminoacylation": 6.85}
{"ORDERED RESIDUES": "AUUCACCCAGGUCAUCGGAUG [Fam2.2 aminoacylation ribozyme variant]", "self-aminoacylation": 0.988}
{"ORDERED RESIDUES": "AUUCACCUAAGUCAUAGGGUG [Fam2.2 aminoacylation ribozyme variant]", "self-aminoacylation": 1.21}
{"ORDERED RESIDUES": "CCACACUUCAUACAAUCGGUC [Fam1B.1 aminoacylation ribozyme variant]", "self-aminoacylation": 0.744}
{"ORDERED RESIDUES": "AUUCACCUUGGUUAUCGGGUG [Fam2.2 aminoacylation ribozyme variant]", "self-aminoacylation": 3.85}
{"ORDERED RESIDUES": "CUACUUCAAACAGUCGGACUG [Fam1A.1 aminoacylation ribozyme variant]", "self-aminoacylation": 0.826}
